# Tested on: Cryptococcus neoformans
# assay overview: Antifungal activity against Cryptococcus neoformans CGMCC2.3161 assessed as fungal growth inhibition by CLSI protocol based method
# Format: functional

compound	MIC
O=C(NC(Cn1ccnc1)C(=O)c1ccccc1)c1ccc(-c2cccc(F)c2)s1 (centres undefined)	> 64 µg/mL
O=C(NC(Cn1ccnc1)C(=O)c1ccccc1)c1ccc(-c2ccc(Cl)cc2Cl)s1 (centres undefined)	> 64 µg/mL
O=C(NC(Cn1ccnc1)C(=O)c1ccccc1)c1cc2ccccc2o1 (centres undefined)	> 64 µg/mL
O=C(NC(Cn1ccnc1)C(=O)c1ccccc1F)c1ccc(-c2ccc(Cl)cc2)s1 (centres undefined)	2 µg/mL
CCC(C)n1ncn(-c2ccc(N3CCN(c4ccc(OCC5COC(Cn6cncn6)(c6ccc(Cl)cc6Cl)O5)cc4)CC3)cc2)c1=O (centres undefined)	0.125 µg/mL
O=C(NC(Cn1ccnc1)C(=O)c1ccccc1)c1ccc(-c2ccc(C(F)(F)F)cc2)s1 (centres undefined)	> 64 µg/mL
Cc1ccc(-c2ccc(C(=O)NC(Cn3ccnc3)C(=O)c3ccccc3)s2)cc1 (centres undefined)	> 64 µg/mL
O=C(NC(Cn1ccnc1)C(=O)c1ccccc1)c1ccc(-c2ccc(F)cc2F)s1 (centres undefined)	> 64 µg/mL
O=C(NC(Cn1ccnc1)C(=O)c1ccc(OC(F)(F)F)cc1)c1ccc(-c2ccc(Cl)cc2)s1 (centres undefined)	> 64 µg/mL
O=C(NC(Cn1ccnc1)C(=O)c1cccc(Cl)c1)c1ccc(-c2ccc(Cl)cc2)s1 (centres undefined)	> 64 µg/mL
OC(Cn1cncn1)(Cn1cncn1)c1ccc(F)cc1F	4 µg/mL
C[C@@H](c1ncncc1F)[C@](O)(Cn1cncn1)c1ccc(F)cc1F	0.06 µg/mL
O=C(NC(Cn1ccnc1)C(=O)c1ccccc1)c1ccc(-c2ccc(F)cc2)s1 (centres undefined)	> 64 µg/mL
O=C(NC(Cn1ccnc1)C(=O)c1ccccc1)c1ccc(-c2ccc(Cl)cc2)s1 (centres undefined)	> 64 µg/mL
O=C(NC(Cn1ccnc1)C(=O)c1ccccc1)c1cnc(-c2ccccc2)o1 (centres undefined)	> 64 µg/mL
N#Cc1ccc(-c2ccc(C(=O)NC(Cn3ccnc3)C(=O)c3ccccc3)s2)cc1 (centres undefined)	> 64 µg/mL
O=C(NC(Cn1ccnc1)C(=O)c1ccccc1)c1ccc(-c2ccccc2)s1 (centres undefined)	8 µg/mL
COc1ccc(-c2ccc(C(=O)NC(Cn3ccnc3)C(=O)c3ccccc3)s2)cc1 (centres undefined)	> 64 µg/mL
O=C(NC(Cn1ccnc1)C(=O)c1ccc(F)cc1)c1ccc(-c2ccc(Cl)cc2)s1 (centres undefined)	> 64 µg/mL
